Tested System: ER in T47D cells (Homo sapiens (Human), UniProt P03372)
Sequence (P03372 whole entry): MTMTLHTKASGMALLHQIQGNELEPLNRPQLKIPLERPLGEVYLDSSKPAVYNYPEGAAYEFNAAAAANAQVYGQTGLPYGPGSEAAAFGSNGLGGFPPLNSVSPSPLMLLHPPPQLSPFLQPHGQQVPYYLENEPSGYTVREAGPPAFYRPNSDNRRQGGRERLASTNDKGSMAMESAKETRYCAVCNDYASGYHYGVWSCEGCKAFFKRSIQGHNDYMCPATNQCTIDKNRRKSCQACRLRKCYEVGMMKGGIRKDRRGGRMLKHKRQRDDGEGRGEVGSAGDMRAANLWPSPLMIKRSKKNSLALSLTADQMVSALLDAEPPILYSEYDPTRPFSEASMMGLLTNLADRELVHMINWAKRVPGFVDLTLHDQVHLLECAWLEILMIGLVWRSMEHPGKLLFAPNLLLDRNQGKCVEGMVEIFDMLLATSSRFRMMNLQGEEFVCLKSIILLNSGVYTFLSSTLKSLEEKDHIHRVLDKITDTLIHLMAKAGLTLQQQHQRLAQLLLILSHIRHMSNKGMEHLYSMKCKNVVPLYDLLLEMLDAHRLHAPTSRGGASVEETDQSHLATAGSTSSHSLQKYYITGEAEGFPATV
Assay Remarks: In-cell Western (ICW) ER degradation assay in T47D cells
Assay type: cell-based
Measurement Parameters: ER degradation, 16 hrs treatment
Assay Endpoint: DC50

INSERT INTO measurements (molecule, result) VALUES
  ('O=C1CC[C@H](NC(=O)c2ccc3c(n2)OC[C@H]2CN(C[C@@H]4COC5(CCN(c6ccc([C@H]7c8ccc(O)cc8CC[C@H]7c7ccccc7)cc6)CC5)C4)CCN32)C(=O)N1 (single isomer, unassigned)', '< 1 nM'),
  ('COc1cc(N2CCC3(CC2)CC(CN2CCC4(CC2)COc2cc5c(cc24)CN([C@H]2CCC(=O)NC2=O)C5=O)C3)c(F)cc1[C@@H]1c2ccc(O)cc2CC[C@@H]1c1ccccc1', '< 1 nM'),
  ('O=C1CC[C@H](N2Cc3cc4c(cc3C2=O)OCC42CCN(CC3CC4(CCN(c5ccc([C@H]6c7ccc(O)cc7CC[C@H]6c6ccccc6)cn5)CC4)C3)CC2)C(=O)N1', '10 to 100 nM');
